Attribution: PubChem BioAssay AID485367

MEASURED_ON: ATP-dependent 6-phosphofructokinase (Trypanosoma brucei brucei) (UniProt O15648)
Sequence (O15648 whole entry, looked up): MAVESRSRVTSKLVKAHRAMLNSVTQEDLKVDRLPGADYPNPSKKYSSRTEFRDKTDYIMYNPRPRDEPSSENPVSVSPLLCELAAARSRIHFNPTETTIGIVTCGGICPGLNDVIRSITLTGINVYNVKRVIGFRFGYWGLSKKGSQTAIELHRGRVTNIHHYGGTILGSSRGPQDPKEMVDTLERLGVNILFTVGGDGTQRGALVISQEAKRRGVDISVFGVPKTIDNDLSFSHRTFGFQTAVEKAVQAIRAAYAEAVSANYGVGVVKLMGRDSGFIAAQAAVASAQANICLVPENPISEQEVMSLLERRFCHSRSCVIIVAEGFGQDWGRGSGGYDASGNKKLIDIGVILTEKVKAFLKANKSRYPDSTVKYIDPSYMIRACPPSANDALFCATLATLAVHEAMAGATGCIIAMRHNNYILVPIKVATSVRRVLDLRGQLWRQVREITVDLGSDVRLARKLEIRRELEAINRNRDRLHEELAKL
METHOD: qHTS Assay to Find Inhibitors of T. brucei phosphofructokinase; further: nearly all actives have a fitted effect of over 60% in size
EXPERIMENTAL_PARAMETERS: T. brucei PFK, ADP-Glo luminescence; series mostly up to 57.5 µM
Out of some 330,000 compounds screened, about 560 (0.17%) were called active. Another 1% or so got no clear call; they are omitted. The call rests on the fitted dose curve; in most records, active means well fitted inhibition curve with a large enough effect; inconclusive means small, poorly fitted or top-dose-only effect, or effect the other way; inactive means flat fitted curve, though single readings scatter. The sample as a whole holds a higher share of actives than the screen did.
Please answer using one outcome listed in active, inactive

Can you look up the reported call for Cc1ccc(OCC(=O)N2CCN(C(=O)c3cccnc3)CC2)cc1 for me?
inactive

Can you look up the reported call for O=C(NC1CCCCC1)c1ccc(CNc2c(N3CCOCC3)c(=O)c2=O)cc1 for me?
inactive

Can you look up the reported call for O=C(CN(CC1CCCO1)C(=O)CNS(=O)(=O)c1ccc(F)cc1)NCc1ccco1 (configuration not stated) for me?
inactive

Can you look up the reported call for O=C(CSc1nc2ccccc2c(=O)[nH]1)Nc1nc(-c2ccc(Br)cc2)cs1 for me?
active

Can you look up the reported call for Cc1cccc(NS(=O)(=O)c2ccc(-c3cnc(C4CC4)o3)cc2)c1 for me?
inactive

Can you look up the reported call for CCCCC(CC(C)O)c1n[nH]c(=S)n1-c1ccccc1 (configuration not stated) for me?
inactive

Can you look up the reported call for CCOc1ccc(NCCC(=O)c2ccc3c(c2)OCO3)cc1 for me?
inactive

Can you look up the reported call for S=c1[nH]c2ccccc2c2ccccc12 for me?
inactive

Can you look up the reported call for FC(F)(F)C1CCCN(c2nsc3ccccc23)C1 (configuration not stated) for me?
active

Can you look up the reported call for O=C(CCN1C(=O)C2C3C=CC(C3)C2C1=O)Oc1ccc2ccccc2c1 (configuration not stated) for me?
inactive

Can you look up the reported call for CCOC(=O)c1ccccc1NC(=O)CSc1nc2ccccc2c(=O)[nH]1 for me?
inactive

Can you look up the reported call for COc1cccc(CNC(=O)CCC2CCCN(C(=O)c3ccc(F)c(Cl)c3)C2)c1 (configuration not stated) for me?
inactive

Can you look up the reported call for CCN(CC)CCn1cnc2c1c(=O)n(CCOC(=O)c1cc(OC)c(OC)c(OC)c1)c(=O)n2C for me?
inactive

Can you look up the reported call for Cc1cc(NC(=O)COC(=O)/C=C/c2ccc(C)o2)no1 for me?
inactive

Can you look up the reported call for COC(=O)c1cccc(NC(=O)CN2CCC(NC(=O)c3cc(OC)c(OC)c(OC)c3)CC2)c1 for me?
inactive

Can you look up the reported call for CC(C)=CC(=O)Nc1nnc(-c2ccc(F)cc2)s1 for me?
inactive

Can you look up the reported call for O=C1CCN(Cc2ccccc2)CCN1[C@H](CSc1ccccc1)c1ccccc1 for me?
inactive

Can you look up the reported call for CCCN1C2CCCC1CC(NC(=O)NC13CC4CC(CC(C4)C1)C3)C2 (configuration not stated) for me?
inactive

Can you look up the reported call for Cc1nc(SCc2ccc(F)cc2)c([N+](=O)[O-])[nH]1 for me?
inactive

Can you look up the reported call for CC(C)(C)OC(=O)C[C@@H]1C/C=C\C[C@@H](CC(=O)N[C@@H](CO)Cc2ccccc2)C(=O)N2CCC[C@H]2COC1=O for me?
inactive

Can you look up the reported call for Cc1nc2nc(COc3ccccc3)[nH]n2c(=O)c1C for me?
inactive

Can you look up the reported call for O=C(c1ccccc1)c1cc(-c2ccccn2)c(N2CCOCC2)s1 for me?
inactive

Can you look up the reported call for COc1ccc(-c2nc3c(s2)CCc2onc(-c4ccc(OC)cc4)c2-3)cc1 for me?
inactive

Can you look up the reported call for O=C(OCC(=O)N1CCc2ccccc21)c1ccc([N+](=O)[O-])cc1 for me?
inactive

Can you look up the reported call for OC(CNCC1CCCO1)Cn1c2ccc(Br)cc2c2cc(Br)ccc21 (configuration not stated) for me?
inactive

Can you look up the reported call for CC1CCN(C(=O)CN(c2ccc(Oc3ccccc3)cc2)S(C)(=O)=O)CC1 for me?
inactive

Can you look up the reported call for Cc1c(CCO)c(=O)n(-c2ccccc2)n1S(=O)(=O)c1ccc(F)cc1 for me?
inactive

Can you look up the reported call for CC1CCC(NC(=O)CN(C)S(=O)(=O)c2ccc3c(c2)c(=O)n(C)c(=O)n3C)CC1 (configuration not stated) for me?
inactive

Can you look up the reported call for Cc1ccc2c(=O)cc(C(=O)NCCc3ccc(S(N)(=O)=O)cc3)oc2c1C for me?
inactive

Can you look up the reported call for COc1cc(S(=O)(=O)N2CCOCC2)ccc1NC(=O)COc1ccc(N(C)S(=O)(=O)c2ccc(C)cc2)cc1 for me?
inactive

Can you look up the reported call for C/C(=N/Nc1ccc(Cl)cc1)c1cnnc(-c2ccccc2)n1 for me?
inactive

Can you look up the reported call for Cc1cc(C)cc(C(=O)N2CCN=C2SCc2ccc([N+](=O)[O-])cc2)c1 for me?
inactive

Can you look up the reported call for C=CCOc1ccc(/C=C/C(=O)OCC(=O)NC2CCCCCC2)cc1 for me?
inactive

Can you look up the reported call for Cc1c(C)c2ccc(OCC(=O)N3CCC(C(=O)O)CC3)c(C)c2oc1=O for me?
inactive

Can you look up the reported call for CCCNC(=O)NC(=O)COC(=O)CC(NC(N)=O)c1ccc(Cl)cc1 (configuration not stated) for me?
inactive

Can you look up the reported call for Cc1nc(N)nc(SCc2ccc([N+](=O)[O-])cc2)c1N for me?
active

Can you look up the reported call for Cc1cccn2c(CN(C)C3CCCc4ccccc43)c(C(=O)N3CCOCC3)nc12 (configuration not stated) for me?
inactive
